# Test system: NCI-H522 lung
# Test Summary: NCI tumour cell line growth inhibition, 48 h
This section presents compounds with their documented log10(TGI) values.
Readout Type: log10(TGI) (log10 of the value in µM)

compound="O=C1C=CC=CC2CC=C[C@@H](O)C12 (stereo not given in full)" value=1.43
compound=Cc1ccc(C(C)(C)C[P+](C)(c2ccccc2)c2ccccc2)cc1 value=1.28
compound=CCOC(=O)C1=C(C(=O)c2ccc(C)cc2)C(c2cccc([N+](=O)[O-])c2)C(C(=O)c2ccc(C)cc2)=C(C(=O)OCC)N1 value=1.56
compound=CN(C)c1nc(N(C)C)nc(N(C)C23CC4CC(CC(C4)C2)C3)n1 value=1.61
compound=COc1cc(/C=C\c2ccc(C)cc2)cc(OC)c1OC value=-1.89

###

# System: HCT-15 colon
# Test Summary: NCI tumour cell line growth inhibition, 48 h; in the data active = GI50 below about 0.43 µM; inactive = the rest
Labels: active, inactive

compound=COc1ccc2c(c1)/C(=C\c1cccnc1)C(=O)N2 classification=inactive
compound="O=[N+]([O-])c1ccc(S(=O)Cc2ccccc2)c([N+](=O)[O-])c1 (configuration not stated)" classification=inactive
compound=CN(C)c1ccc([O-])cc1.CN(C)c1ccc([O-])cc1.CN(C)c1ccc([O-])cc1.CN(C)c1ccc([O-])cc1.[Ti+4] classification=inactive
compound=COc1cc2c(c(OC)c1OC)-c1ccc(N)c(=O)cc1[C@@H](NC(C)=O)CC2 classification=active
compound=C=C1SC(=Nc2c(C)cc(C)cc2C)N(C(=O)c2sc3ccccc3c2Cl)C12CCCCC2 classification=inactive
compound=O=C(Nc1ccc(F)cc1)c1ccc(NC2=C(Cl)C(=O)N(Cc3ccccc3)C2=O)cc1 classification=inactive
compound=O=C(c1ccc2ccccc2c1)c1c(C(F)(F)F)n([O-])c2cc(F)c(F)cc2[n+]1=O classification=inactive

###

# Tested on: A549 NSCLC
# Test Summary: NCI tumour cell line growth inhibition, 48 h
Readout Type: TGI

molecule=COc1ccc(-c2cc(=O)c3c(C)cc(C)nc3[nH]2)cc1 readout_type=TGI value="> 100 µM"
molecule=COc1ccc(N2Cc3cnc(Nc4ccccc4)nc3N([C@@H]3CC[C@@H](O)C3)C2=O)cc1 readout_type=TGI value="> 25 µM"
molecule="O=C(Nc1ccc(Cl)cc1Cl)C(=O)C(C(=O)c1ccc2ccccc2c1)C1OC(=O)c2ccccc21 (stereo not given)" readout_type=TGI value="73.6 µM"
molecule=Cc1c(S(C)(=O)=O)c(-c2cc(F)cc(N3CCN(c4ccc(NS(=O)(=O)c5ccc(N[C@H](CCN6CCC(C(=O)OCCCP(=O)(O)O)CC6)CSc6ccccc6)c(S(=O)(=O)C(F)(F)F)c5)cc4)CC3)c2)c(-c2ccc(Cl)cc2)n1C(C)C readout_type=TGI value="> 100 µM"
molecule="O=C(c1ccccc1)C1CCCCN1C(=O)c1ccccc1 (stereo not given)" readout_type=TGI value="> 100 µM"
molecule="CCO/C=C/C(C)C1(C(=O)OCC)CCCCC1=O (stereo not given)" readout_type=TGI value="> 100 µM"
molecule="COC(=O)C(C(=O)C(=O)Nc1ccc(C(F)(F)F)cc1[N+](=O)[O-])c1csc(-n2nc(-c3ccccc3)cc2-c2ccccc2)n1 (stereo not given)" readout_type=TGI value="> 100 µM"
molecule=CCCc1c(CC)c(=N)c2ccccc2n1C readout_type=TGI value="> 100 µM"
molecule=CCOC(=O)C1=C(C(=O)c2ccc(C)cc2)C(c2cccc([N+](=O)[O-])c2)C(C(=O)c2ccc(C)cc2)=C(C(=O)OCC)N1 readout_type=TGI value="66.1 µM"
molecule=CN(C)c1nc(N(C)C)nc(N(C)C23CC4CC(CC(C4)C2)C3)n1 readout_type=TGI value="> 100 µM"

###

# Tested on: NCI-H23 lung
# Test Summary: NCI tumour cell line growth inhibition, 48 h; in the data active = GI50 below about 0.43 µM; inactive = the rest
Labels: T for active, F for inactive

compound=Cc1ccc(/C(=N\N=C(N)N)c2ccccc2)cc1 classification=F
compound=O=Nc1c(-c2c(O)[nH]c3ccc([N+](=O)[O-])cc23)[nH]c2ccc(O)cc12 classification=F
compound=C=CCN(/C=C1/C(=O)O[C@H](COC)[C@@]2(C)C1=C(O)C(=O)C1=C2[C@H](OC(C)=O)C[C@]2(C)C(=O)CC[C@@H]12)CC=C classification=F
compound=Cc1cc(/C=C\c2ccc3ccccc3[n+]2C)c(O)c2ncccc12 classification=T
compound=CCn1c(C(=O)N(C2CC2)C2CC2)cc2c3c(ncn3C)c(Nc3cc(C)n(C)n3)nc21 classification=F
compound=O=C1C=C(NCCNC(=S)Nc2ccccc2)c2nccc3c2c1nc1ccccc13 classification=F
compound=CCCC(=O)Nc1cc(C(=O)N2C[C@@H]3C[C@]34C2=CC(=O)c2[nH]cc(C)c24)n(COC)c1 classification=F
compound=CCCCCCCNc1nc(C(=O)OCC)ncc1-c1ccc(C(F)(F)F)cc1 classification=F
compound=O=C1c2ccc([N+](=O)[O-])cc2-c2c1c1ccccc1c(=O)n2CCCNCCCNCCCn1c2c(c3ccc([N+](=O)[O-])cc3c1=O)C(=O)c1ccccc1-2 classification=F
compound=O=C([CH-]C(=O)c1ccccc1)c1ccccc1.O=C([CH-]C(=O)c1ccccc1)c1ccccc1.O=C([CH-]C(=O)c1ccccc1)c1ccccc1.[Nd+3].[OH3+] classification=F
compound="Clc1ccc(N2N=C(c3cccc(Nc4ccncc4)c3)CC2c2ccc3c(c2)OCO3)cc1 (stereo not drawn)" classification=F
compound=O=C(Nc1ccc(F)cc1)c1ccc(NC2=C(Cl)C(=O)N(Cc3ccccc3)C2=O)cc1 classification=F
compound=COc1ccc(N2Cc3cnc(Nc4ccccc4)nc3N([C@@H]3CC[C@@H](O)C3)C2=O)cc1 classification=F

###

# Test system: MCF7 breast
# Test Summary: NCI tumour cell line growth inhibition, 48 h
Readout Type: GI50

molecule="O=C(/C=C/C12c3ccccc3C(c3ccccc31)C1C(=O)N(c3ccccc3)C(=O)C12)c1ccccc1 (centres undefined)" readout_type=GI50 value="1480 nM"
molecule=COc1cc2c(c(OC)c1OC)-c1ccc(N)c(=O)cc1[C@@H](NC(C)=O)CC2 readout_type=GI50 value="< 10 nM"
molecule=Cc1cc(/C=C\c2ccc3ccccc3[n+]2C)c(O)c2ncccc12 readout_type=GI50 value="283 nM"
molecule=C[C@H](NC(=O)[C@@H]1CSSC[C@@H](NC(=O)c2nc3ccccc3cc2O)C(=O)NCC(=O)N1C)c1ccccc1 readout_type=GI50 value="835 nM"
molecule=O=C1C(c2c[nH]c3ccccc23)=C(c2c[nH]c3ccccc23)C(=O)N1O readout_type=GI50 value="> 25000 nM"
molecule=COc1ccc2c(c1)C(=O)c1c-2n(CCCN=[N+]=[N-])c(=O)c2cc(N(C)C)ccc12 readout_type=GI50 value="> 100000 nM"
molecule=CC1(C)CC[C@H](Nc2ncc(C(F)(F)F)c(-c3c[nH]c4c(P(C)(C)=O)c(C#N)ccc34)n2)CN1 readout_type=GI50 value="< 13.7 nM"
molecule=O=C1c2ccc([N+](=O)[O-])cc2-c2c1c1ccccc1c(=O)n2CCCNCCCNCCCn1c2c(c3ccc([N+](=O)[O-])cc3c1=O)C(=O)c1ccccc1-2 readout_type=GI50 value="961 nM"
molecule=COc1ccc(-c2nc3sc(-c4ccc(Cl)cc4)cn3n2)cc1 readout_type=GI50 value="2620 nM"

###

# System: UO-31 renal
# Test Summary: NCI tumour cell line growth inhibition, 48 h
This section presents compounds with their documented TGI values.
Readout Type: TGI

compound=CCCc1c(CC)c(=N)c2ccccc2n1C readout_type=TGI value="> 100 µM"
compound=CCOC(=O)c1c(CN2CCNCC2)nc2ccccc2c1-c1ccccc1 readout_type=TGI value="21.7 µM"
compound=CCOC(=O)C1(C(=O)OCC)[C@H](c2ccccc2)C2=NO[C@@H]3CCC[C@H]1[C@H]23 readout_type=TGI value="> 100 µM"
compound="COC1=CC(=O)C2C(C1=O)[C@@H]1c3ccccc3C[C@H]21 (stereo partly specified)" readout_type=TGI value="> 100 µM"
compound="CC1CC2CC(=O)CC3(C1)C2CCCN3CCCO (stereo unspecified)" readout_type=TGI value="> 100 µM"
compound="CC1OC(OCC2OC(Oc3c(-c4ccc(O)cc4)oc4cc(O)cc(O)c4c3=O)C(OC3OC(C)C(O)C(O)C3O)C(O)C2O)C(O)C(O)C1O (stereo unspecified)" readout_type=TGI value="> 100 µM"
compound=O=C(NCc1cccc(C(F)(F)F)c1)c1cc2sccc2nc1C(F)(F)F readout_type=TGI value="> 100 µM"
compound=CC(C)=CCC/C(C)=C/CC/C(C)=C/Cc1c(O)c2ccccc2oc1=O readout_type=TGI value="> 100 µM"
compound=NCCCOCC(=O)O readout_type=TGI value="> 100 µM"
compound=CCCCCCCNc1nc(C(=O)OCC)ncc1-c1ccc(C(F)(F)F)cc1 readout_type=TGI value="77.1 µM"
compound="CCCCS(=O)CCC(N)C(=O)O (stereo unspecified)" readout_type=TGI value="> 100 µM"
compound=CCCCc1cc2c(C)cc(=O)oc2c(O)c1O readout_type=TGI value="54.6 µM"
compound=O=C(Nc1cccs1)c1c(O)[nH]c(=S)[nH]c1=O readout_type=TGI value="> 100 µM"
compound="[Cl][Pt+2][Cl].[NH-]C1CCCCC1[NH-] (stereo unspecified)" readout_type=TGI value="> 100 µM"
compound=C[C@H](NC(=O)[C@@H]1CSSC[C@@H](NC(=O)c2nc3ccccc3cc2O)C(=O)NCC(=O)N1C)c1ccccc1 readout_type=TGI value="13.3 µM"
compound=COc1ccc(N(C)C(=O)N(C)c2ccc([N+](=O)[O-])cc2)cc1 readout_type=TGI value="> 100 µM"
compound=CCC(=O)O[C@H]1CC[C@H]2[C@@H]3CC[C@H]4CC(=O)[C@H](C)C[C@]4(C)[C@H]3CC[C@]12C readout_type=TGI value="> 100 µM"
compound="COC(=O)C(C(=O)C(=O)Nc1ccc(C(F)(F)F)cc1[N+](=O)[O-])c1csc(-n2nc(-c3ccccc3)cc2-c2ccccc2)n1 (stereo unspecified)" readout_type=TGI value="> 100 µM"
compound="CCO/C=C/C(C)C1(C(=O)OCC)CCCCC1=O (stereo unspecified)" readout_type=TGI value="> 100 µM"
compound="CC(=O)N[C@@H]1C(O)CN2C(=O)C(=O)O[C@H](C(O)CO)[C@@H]12 (stereo partly specified)" readout_type=TGI value="> 100 µM"
compound="O=C(O)C1C2CCC(O2)C1C(=O)N1CCCCC1 (stereo unspecified)" readout_type=TGI value="46 µM"
compound=COc1cc(CCN)c2c(c1OC)SSSSS2 readout_type=TGI value="1.12 µM"
compound=Cc1ccc(C(C)(C)C[P+](C)(c2ccccc2)c2ccccc2)cc1 readout_type=TGI value="> 85 µM"
compound=COc1ccc(-c2nc3sc(-c4ccc(Cl)cc4)cn3n2)cc1 readout_type=TGI value="4.51 µM"
compound="COC(=O)C1C(O)CC(c2ccccn2)N(Cc2ccccc2)C1c1ccccn1 (stereo unspecified)" readout_type=TGI value="> 100 µM"
compound="CCOC(=O)C1(Br)C(c2ccccc2)NC(=O)NC1(C)Br (stereo unspecified)" readout_type=TGI value="> 100 µM"
compound=Oc1ccc(C(c2ccc(O)cc2)c2ccc(Cl)cn2)cc1 readout_type=TGI value="> 100 µM"
compound=C/C(=C\c1ccccn1)c1ccccn1 readout_type=TGI value="> 100 µM"
compound=COc1cc2nc(-c3ccc4ccccc4c3)[nH]c(=O)c2cc1OC readout_type=TGI value="> 100 µM"
compound=O=C(CCN1CCCC1)Nc1ccc2sc3ccccc3c(=O)c2n1 readout_type=TGI value="16.3 µM"
compound="CCCNCCCC(NC(C)=O)C(=O)NCc1ccccc1 (stereo unspecified)" readout_type=TGI value="> 100 µM"
compound=CCOC(=O)C(=[N+]=[N-])C(=O)Nc1nn2nnnc2c2ccccc12 readout_type=TGI value="> 100 µM"
compound=C(=C\c1cccc(/C=C/c2ccccn2)n1)/c1ccccn1 readout_type=TGI value="> 100 µM"
compound=CCOC(=O)/C(O)=C/c1cc(OC)cc(=O)o1 readout_type=TGI value="> 100 µM"
compound=COc1ccc2c(c1)/C(=C\c1cccnc1)C(=O)N2 readout_type=TGI value="> 100 µM"
compound=COC(=O)[C@H]1[C@@H](C(C)C)O[C@@H](C(C)C)O[C@H]1C(F)(F)F readout_type=TGI value="> 100 µM"
compound="COC(=O)C1CCC(=O)N1C(=O)Cc1ccc(OC)cc1 (stereo unspecified)" readout_type=TGI value="> 100 µM"
compound="CCCCC1CC(c2cccc([N+](=O)[O-])c2)=NO1 (stereo unspecified)" readout_type=TGI value="> 100 µM"
compound="O=C(c1ccccc1)C1CCCCN1C(=O)c1ccccc1 (stereo unspecified)" readout_type=TGI value="> 100 µM"
compound="O=C(/C=C/c1ccccc1)CC1OC(=O)c2ccccc21 (stereo unspecified)" readout_type=TGI value="> 100 µM"
compound=Cc1cc(/C=C\c2ccc3ccccc3[n+]2C)c(O)c2ncccc12 readout_type=TGI value="3.27 µM"
